Listed here are binders together with their documented RLU.
target: T1, human CD71 extracellular domain (CD71-ECD) (human, UniProt P02786 89-760); assay: primary ELISA; also: test concentration or dose not given here
T1 construct: also called hCD71; human CD71-ECD
T1 sequence (P02786 89-760): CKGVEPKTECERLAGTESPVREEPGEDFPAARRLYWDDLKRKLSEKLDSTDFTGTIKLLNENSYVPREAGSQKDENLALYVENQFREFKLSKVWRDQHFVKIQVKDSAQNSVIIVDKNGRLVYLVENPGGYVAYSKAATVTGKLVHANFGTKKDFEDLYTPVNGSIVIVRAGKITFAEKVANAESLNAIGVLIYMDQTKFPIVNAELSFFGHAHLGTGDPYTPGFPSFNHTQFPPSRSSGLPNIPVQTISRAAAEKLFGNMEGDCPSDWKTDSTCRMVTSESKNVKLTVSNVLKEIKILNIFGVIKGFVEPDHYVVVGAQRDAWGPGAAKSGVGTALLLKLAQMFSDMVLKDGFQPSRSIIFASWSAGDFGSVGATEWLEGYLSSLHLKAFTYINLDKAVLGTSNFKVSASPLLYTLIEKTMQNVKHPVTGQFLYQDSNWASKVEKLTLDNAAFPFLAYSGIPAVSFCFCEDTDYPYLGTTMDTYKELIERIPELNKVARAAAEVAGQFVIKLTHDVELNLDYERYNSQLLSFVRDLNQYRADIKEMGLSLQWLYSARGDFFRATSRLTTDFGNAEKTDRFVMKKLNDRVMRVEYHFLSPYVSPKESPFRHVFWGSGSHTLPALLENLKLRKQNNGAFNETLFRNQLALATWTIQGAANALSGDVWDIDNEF
Field: numeric (RLU). Do not append units.

Query: Check the records and state RLU for CD71-binding FN3 domain SEQ ID NO: 245 (designed binder) MSLPAPKNLVVSRVTEDSARLSWTAPDAAFDSFEISYWEHTFNGEAIILFVPGSERSYDLTGLKPGTEYYVTIGGVKGGAWSPPLWAHFTT
Response: 3.75e+06

Let us examine a further case.
Query: Check the records and state RLU for CD71-binding FN3 domain SEQ ID NO: 250 (designed binder) MSLPAPKNLVVSRVTEDSARLSWTAPDAAFDSFEIGYFENLYLGEAIVLTVPGSERSYDLTGLKPGTEYWVQIGGVNGGNWSAPLSAIFTT
Response: 3.41e+06
